- System: KM12 colon
- assay_notes: NCI tumour cell line growth inhibition, 48 h
Known TGI of a selection of molecules
Write it as a number; the unit µM goes unstated.

For orientation, consider the following solved cases.
[
  {
    "query_smiles": "O=C1c2ccccc2-c2c1c1ccc([N+](=O)[O-])cc1c(=O)n2CCCn1ccnc1",
    "experimental_endpoint": "TGI",
    "experimental_result": 1.25
  },
  {
    "query_smiles": "COc1ccccc1N1CCN(CCCOc2ccc(C(=O)/C=C3/C(=O)Nc4ccccc43)cc2)CC1",
    "experimental_endpoint": "TGI",
    "experimental_result": 24.8
  },
  {
    "query_smiles": "COCC(=O)NC/C=C/c1ccc2ncnc(Nc3ccc(Oc4ccc(C)nc4)c(C)c3)c2c1",
    "experimental_endpoint": "TGI",
    "experimental_result": 53
  }
]

Okay, next one:
# input Look up TGI with KM12 colon for this molecule: "COC(=O)CCCNC(=O)C(=O)c1c(O)c(O)c(C(C)C)c2cc(C)c(-c3c(C)cc4c(C(C)C)c(O)c(O)c(C(=O)C(=O)NCCCC(=O)OC)c4c3O)c(O)c12"
# output 4.58
